study.system: Potassium-transporting ATPase (Rattus norvegicus) (UniProt P09626+P18598)
test.protocol: Inhibition of pentagastrin stimulated gastric acid secretion in anesthetized rat at 10 umol/kg upon intravenous administration
Type: functional, organism-based
run.parameters: Stomach
property: inhibition (%)
Give the number; % is assumed, so skip it.

{"compound": "C=CCNC(=O)c1cnc2c(OC)cccc2c1Nc1ccccc1C", "inhibition, %": 38}
{"compound": "CCNC(=O)c1cnc2c(OC)cccc2c1Nc1ccccc1C", "inhibition, %": 58}
{"compound": "COc1cccc2c(Nc3ccccc3C)c(C)cnc12", "inhibition, %": 12.5}
{"compound": "COc1cccc2c(Nc3ccccc3C)c(C(=O)NC(C)(C)CO)cnc12", "inhibition, %": 13}
{"compound": "COc1cccc2c(Nc3ccccc3C)c(C(=O)C3CCCC3)cnc12", "inhibition, %": 56}
{"compound": "CCC[S+]([O-])c1cnc2ccccc2c1Nc1ccccc1C (configuration not stated)", "inhibition, %": 21}

Input: Give its inhibition value. Item: "Cc1ccccc1Nc1c([N+](=O)[O-])cnc2ccccc12"
Output: 30

Input: Record request: inhibition value, item "CCC(CC)C(=O)c1cnc2c(OC)cccc2c1Nc1ccccc1C"
Output: 55

Input: What value of inhibition has been reported for the following compound? "Cc1ccccc1Nc1ccnc2ccccc12"
Output: 16

Input: # input compound: "COc1cccc2c(Nc3ccccc3C)c(C(=O)OCCN(C)C)cnc12" ; wanted: its inhibition
Output: 19

Input: Entry "CCCNC(=O)c1cnc2c(OC)cccc2c1Nc1ccccc1C" : reported inhibition = ?
Output: 40

Input: // lookup inhibition for "Cc1ccccc1Nc1c(N)cnc2ccccc12"
Output: 27

====

study.system: Potassium-transporting ATPase (Sus scrofa, UniProt P19156)
Sequence (P18434 whole entry): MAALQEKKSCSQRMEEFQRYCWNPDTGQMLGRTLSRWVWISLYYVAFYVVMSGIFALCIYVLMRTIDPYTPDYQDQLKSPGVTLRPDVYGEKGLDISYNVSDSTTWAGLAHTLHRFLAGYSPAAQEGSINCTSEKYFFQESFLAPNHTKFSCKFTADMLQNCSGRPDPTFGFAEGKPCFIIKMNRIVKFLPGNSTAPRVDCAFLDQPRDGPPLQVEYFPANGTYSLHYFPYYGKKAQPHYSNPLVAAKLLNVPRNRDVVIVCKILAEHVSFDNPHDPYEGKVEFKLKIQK
Sequence (P19156 whole entry): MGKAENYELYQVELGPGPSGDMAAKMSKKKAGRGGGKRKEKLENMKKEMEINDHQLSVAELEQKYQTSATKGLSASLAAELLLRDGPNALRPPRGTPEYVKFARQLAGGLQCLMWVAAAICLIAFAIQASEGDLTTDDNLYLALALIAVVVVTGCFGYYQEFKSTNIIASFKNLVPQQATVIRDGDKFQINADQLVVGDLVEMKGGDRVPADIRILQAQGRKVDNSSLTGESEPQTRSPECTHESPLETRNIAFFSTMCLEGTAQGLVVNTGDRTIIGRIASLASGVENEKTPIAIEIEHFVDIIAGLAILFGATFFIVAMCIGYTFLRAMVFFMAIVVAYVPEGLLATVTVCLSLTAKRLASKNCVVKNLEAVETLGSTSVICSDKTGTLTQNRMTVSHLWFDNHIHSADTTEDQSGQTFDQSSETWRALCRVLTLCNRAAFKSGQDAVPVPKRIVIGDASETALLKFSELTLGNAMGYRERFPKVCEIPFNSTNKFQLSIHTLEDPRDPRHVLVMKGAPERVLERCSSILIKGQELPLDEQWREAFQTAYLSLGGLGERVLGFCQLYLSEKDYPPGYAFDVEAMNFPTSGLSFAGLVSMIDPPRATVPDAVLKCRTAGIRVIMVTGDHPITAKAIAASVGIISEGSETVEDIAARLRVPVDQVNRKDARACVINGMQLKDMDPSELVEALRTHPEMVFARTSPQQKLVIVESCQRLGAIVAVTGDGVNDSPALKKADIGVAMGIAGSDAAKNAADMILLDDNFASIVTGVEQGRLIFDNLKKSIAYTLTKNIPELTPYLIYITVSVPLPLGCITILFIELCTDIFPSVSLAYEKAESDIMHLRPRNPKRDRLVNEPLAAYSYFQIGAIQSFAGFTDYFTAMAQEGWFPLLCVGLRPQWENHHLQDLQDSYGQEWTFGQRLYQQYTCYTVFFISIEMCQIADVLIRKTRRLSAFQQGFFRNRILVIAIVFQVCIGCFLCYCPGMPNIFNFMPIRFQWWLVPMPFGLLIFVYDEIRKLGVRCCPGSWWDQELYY
test.protocol: […] inhibit the activity of K+ stimulated gastric ATPase
Assay type: tissue-based, Stomach
property: pIC50
On this scale, pIC50 is minus log10 of a concentration expressed in M (mol/L).

Take a look at these entries with their results.
{"compound": "CCOC(=O)c1cnc2c(OC)cccc2c1N(C)c1ccccc1", "measured.value": 4.05}
{"compound": "COc1cccc2c(Nc3ccccc3C)c(C(C)O)cnc12 (centres undefined)", "measured.value": 4.62}
{"compound": "CCCC(=O)c1cnc2c(OC)cccc2c1Nc1ccccc1", "measured.value": 5.40}
{"compound": "CCC(=O)c1cnc2c(OC)cccc2c1Nc1ccccc1C", "measured.value": 6.40}
{"compound": "COc1cccc2c(Nc3ccccc3C)c(C(=O)C3CCCCC3)cnc12", "measured.value": 5.42}

Input: Requested read-out: pIC50. Entry: "CCCC(=O)c1cnc2ccccc2c1Nc1ccccc1C"
Output: 6.01

Input: Quick one: pIC50 of "COc1cccc2c(Nc3ccccc3C)c(C(=O)C(C)C)cnc12" ?
Output: 5.96

Input: // query pIC50 value for entry "CCCCCC(=O)c1cnc2c(OC)cccc2c1Nc1ccccc1C"
Output: 5.56

Input: Look up pIC50 for this compound: "CCCNC(=O)c1cnc2c(OC)cccc2c1Nc1ccccc1C"
Output: 4.66

Input: So what's the measured pIC50 for this one? "CCC(CC)C(=O)c1cnc2c(OC)cccc2c1Nc1ccccc1C"
Output: 5.74

====

study.system: Potassium-transporting ATPase (Sus scrofa, UniProt P19156)
test.protocol: […] inhibit the activity of K+ stimulated gastric ATPase
Type: tissue-based, Stomach
property: pIC50
Please keep in mind that pIC50 is minus log10 of the molar concentration; only the number is needed.

Previously resolved entries follow.
{"mol": "COCC(=O)c1cnc2c(OC)cccc2c1Nc1ccccc1C", "study.system": "Potassium-transporting ATPase (Sus scrofa, UniProt P19156)", "measured.value": 4.92}
{"mol": "Cc1ccccc1Nc1c(Br)cnc2ccccc12", "study.system": "Potassium-transporting ATPase (Sus scrofa, UniProt P19156)", "measured.value": 4.85}
{"mol": "COc1cccc2c(Nc3ccccc3C)c(C(=O)c3ccccc3)cnc12", "study.system": "Potassium-transporting ATPase (Sus scrofa, UniProt P19156)", "measured.value": 4.79}
{"mol": "COc1cccc2c(Nc3ccccc3C)c(C(=O)C3CCC3)cnc12", "study.system": "Potassium-transporting ATPase (Sus scrofa, UniProt P19156)", "measured.value": 5.92}
{"mol": "Cc1ccccc1Nc1c(N)cnc2ccccc12", "study.system": "Potassium-transporting ATPase (Sus scrofa, UniProt P19156)", "measured.value": 4.51}

Input: Provide the documented pIC50 with Potassium-transporting ATPase (Sus scrofa, UniProt P19156) as the system for "COc1cccc2c(Nc3ccccc3C)ccnc12"
Output: 7.00

Input: State its pIC50 on Potassium-transporting ATPase (Sus scrofa, UniProt P19156): "COc1cccc2c(Nc3ccccc3C)c(C(C)=O)cnc12"
Output: 5.32

Input: # get_value(readout= pIC50, system= Potassium-transporting ATPase (Sus scrofa, UniProt P19156)) for "CCNC(=O)c1cnc2c(OC)cccc2c1Nc1ccccc1C"
Output: 5.53

Input: Give Potassium-transporting ATPase (Sus scrofa, UniProt P19156) pIC50 for "COc1cccc2c(Nc3ccccc3C)c(C(=O)OCCN(C)C)cnc12"
Output: 4.36

Input: # returns recorded pIC50 (system: Potassium-transporting ATPase (Sus scrofa, UniProt P19156)) for "COc1cccc2c(Nc3ccccc3C)c(C)cnc12"
Output: 5.21

Input: Find the measured pIC50: item "COc1cccc2c(Nc3ccccc3C)c(C(=O)C3CCCC3)cnc12" , target or system Potassium-transporting ATPase (Sus scrofa, UniProt P19156).
Output: 5.77

Input: For Potassium-transporting ATPase (Sus scrofa, UniProt P19156), provide pIC50 of "CCCc1cnc2c(OC)cccc2c1Nc1ccccc1C" please.
Output: 5.06

====

inhibition values by entry
study.system: Potassium-transporting ATPase (Rattus norvegicus) (UniProt P09626+P18598)
test.protocol: Inhibition of pentagastrin stimulated gastric acid secretion in anesthetized rat at 10 umol/kg upon intravenous administration
Assay type: functional, organism-based
run.parameters: Stomach
All answers are understood in %, so give the number only.

Illustrative cases are given below, each with its answer.
{"mol": "CCCCNC(=O)c1cnc2c(OC)cccc2c1Nc1ccccc1C", "study.system": "Potassium-transporting ATPase (Rattus norvegicus) (UniProt P09626+P18598)", "inhibition (%)": 30}
{"mol": "COc1cccc2c(Nc3ccccc3C)c(C(=O)N3CCCC3)cnc12", "study.system": "Potassium-transporting ATPase (Rattus norvegicus) (UniProt P09626+P18598)", "inhibition (%)": 15}

Input: Given the compound "CCCc1cnc2c(OC)cccc2c1Nc1ccccc1C" , what is its reported inhibition?
Output: 34

Input: Query: inhibition; subject: "Cc1ccccc1Nc1c(Br)cnc2ccccc12"
Output: 31

Input: Would you kindly share the measured inhibition for "COc1cccc2c(Nc3ccccc3C)c(C(=O)C3CCC3)cnc12" ?
Output: 47

Input: Quick check: inhibition of "COc1cccc2c(Nc3ccccc3C)c(C(=O)C(C)(C)C)cnc12" ?
Output: 63

====

Catalogue of inhibition readings, one per entry.
study.system: Potassium-transporting ATPase (Sus scrofa) (UniProt P18434+P19156)
test.protocol: […] inhibit the activity of K+ stimulated gastric ATPase at 100 uM
Type: tissue-based
run.parameters: Stomach
The figure you give is taken to be in %; do not add the unit.

Example entries and their recorded answers appear below.
{"molecule": "CCOC(=O)c1cnc2c(OC)cccc2c1Oc1ccccc1C", "property": "inhibition", "units.text": "%", "measured.value": 13}
{"molecule": "COc1cccc2c(Nc3ccccc3C)c(C(=O)NC(C)(C)CO)cnc12", "property": "inhibition", "units.text": "%", "measured.value": 26}
{"molecule": "CCC[S+]([O-])c1cnc2ccccc2c1Nc1ccccc1C (centres undefined)", "property": "inhibition", "units.text": "%", "measured.value": 19}

Input: Param item = "COc1cccc2c(Nc3ccccc3C)c(C(=O)N3CCCC3)cnc12" ; retrieve measured inhibition.
Output: 20

====

# maps each entry to its IC50
study.system: Potassium-transporting ATPase (Sus scrofa)
test.protocol: […] inhibit the activity of K+ stimulated gastric ATPase
Type: tissue-based, Stomach
Your answer should be a plain number; it is taken to be in µM.

Look over these answered cases.
{"mol": "CCCCNC(=O)c1cnc2c(OC)cccc2c1Nc1ccccc1C", "IC50, µM": 65}
{"mol": "CCCSc1cnc2ccccc2c1Nc1ccccc1C", "IC50, µM": 5.14}

Input: Returns the measured IC50 for the input compound. Input: "Cc1ccccc1Nc1ccnc2ccccc12"
Output: 1.43

====

study.system: Potassium-transporting ATPase subunit beta (Rattus norvegicus)
test.protocol: Inhibition of pentagastrin stimulated gastric acid secretion in anesthetized rat upon intravenous administration
Assay type: functional, organism-based
run.parameters: Stomach
property: ED50 (µmol/kg)
Provide only the numeric value, understood in µmol/kg.

{"mol": "COCC(=O)c1cnc2c(OC)cccc2c1Nc1ccccc1C", "ED50 (µmol/kg)": 12.2}
{"mol": "CCCCCC(=O)c1cnc2c(OC)cccc2c1Nc1ccccc1C", "ED50 (µmol/kg)": 10.7}
{"mol": "COc1cccc2c(Nc3ccccc3C)ccnc12", "ED50 (µmol/kg)": 12.7}

// switching to the query compound
Input: What value of ED50 has been reported for the following compound? "COc1cccc2c(Nc3ccccc3C)c(C(=O)C(C)C)cnc12"
Output: 1.92
